Below are IC50 measurements against Amine oxidase [flavin-containing] B (Homo sapiens, UniProt P27338) drawn from the literature.

smi: N/C(=N\O)c1cccc(/C=C/c2ccnc(-c3cc(F)ccc3O)c2)c1
IC50: > 50 µM
--
smi: C#CCn1c(=O)c2c(nc3n2CCCN3CC2CCCCC2)n(C)c1=O
IC50: > 10 µM
--
smi: CN(C(=O)/C=C/c1ccccc1)c1cn(C)c(=O)n(C)c1=O
IC50: > 10 µM

* * *

Below are IC50 measurements against UniProtKB P27338 drawn from the literature.
test_target: UniProtKB P27338
Sequence (P27338 whole entry): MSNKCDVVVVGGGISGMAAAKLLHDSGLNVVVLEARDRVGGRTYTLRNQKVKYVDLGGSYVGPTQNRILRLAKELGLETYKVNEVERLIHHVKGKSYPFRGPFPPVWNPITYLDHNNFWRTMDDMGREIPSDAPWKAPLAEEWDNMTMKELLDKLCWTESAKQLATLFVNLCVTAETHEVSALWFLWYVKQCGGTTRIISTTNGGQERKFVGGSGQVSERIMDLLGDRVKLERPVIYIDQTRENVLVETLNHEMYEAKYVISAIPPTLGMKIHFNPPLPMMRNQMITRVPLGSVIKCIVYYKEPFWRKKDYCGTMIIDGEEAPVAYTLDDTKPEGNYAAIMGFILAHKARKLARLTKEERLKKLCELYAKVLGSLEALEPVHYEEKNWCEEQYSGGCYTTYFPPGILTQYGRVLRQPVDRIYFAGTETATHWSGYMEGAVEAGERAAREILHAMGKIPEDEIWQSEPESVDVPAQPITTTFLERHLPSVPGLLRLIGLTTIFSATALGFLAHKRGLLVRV
Doc: threshold 9 µM (exclusive). Items with IC50 beneath it return criterion met; others return criterion not met.

molecule: C#CCN(C)Cc1ccc(Br)cc1
test_target: UniProtKB P27338
class_assignment: criterion met
--
molecule: O=C(CCCCCCC(=O)Nc1ccccc1)NO
test_target: UniProtKB P27338
class_assignment: criterion not met
--
molecule: CC(=O)c1ccc(CN2CCC3(CCNCC3)C2)cc1
test_target: UniProtKB P27338
class_assignment: criterion not met
--
molecule: Oc1cc(O)c(/C=N/c2ccc(OCc3ccccc3)cc2)c(O)c1
test_target: UniProtKB P27338
class_assignment: criterion not met
--
molecule: Cc1cc(=O)oc2cc(OC/C=C/C3=CC(=O)C(C)(C)O3)ccc12
test_target: UniProtKB P27338
class_assignment: criterion met
--
molecule: Cn1c(=O)c2c(nc(SCCc3cccc(Br)c3)n2C)n(C)c1=O
test_target: UniProtKB P27338
class_assignment: criterion met
--
molecule: N[C@]1(Cc2ccccc2)C[C@@H]1c1ccccc1 (relative stereo)
test_target: UniProtKB P27338
class_assignment: criterion not met
--
molecule: Cc1c2c(nn1-c1ccc(/C=N/NC(=S)Nc3ccccc3)cc1)-c1ccccc1S(=O)(=O)N2C
test_target: UniProtKB P27338
class_assignment: criterion met
--
molecule: Cc1ccc(-c2cc3c(cc2-c2ccc(C#N)cc2)c(C(=O)N2CCC(N)CC2)cn3S(=O)(=O)c2ccc(F)cc2)cc1
test_target: UniProtKB P27338
class_assignment: criterion met
--
molecule: Oc1ccc(/C=N/c2ccc(OCc3ccccc3)cc2)c(O)c1O
test_target: UniProtKB P27338
class_assignment: criterion met
--
molecule: C#CCn1c(=O)c2c(nc3n2CCCN3Cc2cccnc2)n(C)c1=O
test_target: UniProtKB P27338
class_assignment: criterion not met
